Values from ChEMBL document CHEMBL2218924

- Measured On: Proto-oncogene tyrosine-protein kinase receptor Ret (Homo sapiens) (UniProt P07949)
- Sequence (P07949 whole entry): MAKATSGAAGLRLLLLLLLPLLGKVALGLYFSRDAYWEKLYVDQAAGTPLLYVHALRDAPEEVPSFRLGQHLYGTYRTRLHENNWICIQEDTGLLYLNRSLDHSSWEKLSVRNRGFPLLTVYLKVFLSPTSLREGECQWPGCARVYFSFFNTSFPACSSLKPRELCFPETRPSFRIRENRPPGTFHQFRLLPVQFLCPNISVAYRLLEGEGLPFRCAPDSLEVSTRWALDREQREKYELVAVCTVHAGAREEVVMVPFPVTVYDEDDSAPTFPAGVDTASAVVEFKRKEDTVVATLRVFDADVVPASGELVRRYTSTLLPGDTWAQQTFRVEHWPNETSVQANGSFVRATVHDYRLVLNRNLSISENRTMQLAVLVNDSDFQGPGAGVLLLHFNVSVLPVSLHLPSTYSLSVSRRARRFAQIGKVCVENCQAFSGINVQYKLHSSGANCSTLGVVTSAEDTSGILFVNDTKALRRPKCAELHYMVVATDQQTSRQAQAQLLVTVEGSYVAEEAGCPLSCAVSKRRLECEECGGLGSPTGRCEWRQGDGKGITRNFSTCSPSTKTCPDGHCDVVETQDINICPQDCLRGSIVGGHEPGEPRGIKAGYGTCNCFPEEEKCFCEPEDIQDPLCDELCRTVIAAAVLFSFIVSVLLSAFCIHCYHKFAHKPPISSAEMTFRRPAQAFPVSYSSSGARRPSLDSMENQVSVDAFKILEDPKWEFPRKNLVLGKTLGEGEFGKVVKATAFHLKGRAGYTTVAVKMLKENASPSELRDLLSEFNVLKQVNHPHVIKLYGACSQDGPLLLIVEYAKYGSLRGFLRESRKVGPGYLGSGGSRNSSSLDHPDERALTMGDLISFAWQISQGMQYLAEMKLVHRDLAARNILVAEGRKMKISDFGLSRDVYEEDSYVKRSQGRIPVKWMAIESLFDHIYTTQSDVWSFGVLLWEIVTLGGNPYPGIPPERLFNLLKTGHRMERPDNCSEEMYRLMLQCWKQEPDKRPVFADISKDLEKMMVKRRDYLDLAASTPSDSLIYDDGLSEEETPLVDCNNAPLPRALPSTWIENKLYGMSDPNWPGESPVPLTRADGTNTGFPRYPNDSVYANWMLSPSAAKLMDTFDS
- Assay Setup: at 10 µM
Readout Name: residual activity (%)
Write down the numeric answer in % and omit the unit.

Provide only the value of recorded residual activity for Nc1ncnc2c1cnn2-c1ccccc1
91

Give the value of residual activity reported for the following: Cn1c2ccccc2c2c3c(c4c5ccccc5n(CCC#N)c4c21)CNC3=O
1

Given COc1cc2c(cc1OC)-c1n[nH]c(Nc3cccc(F)c3)c1C2 , respond with its residual activity.
19

Please give the documented residual activity of O=C1NC(=O)C(c2cn(CCCn3ccnc3)c3ccccc23)=C1Nc1ccccc1
70

Item CCN(CC)CCNC(=O)c1c(C)[nH]c(/C=C2\C(=O)Nc3ccc(Cl)cc32)c1C : provide residual activity
-1

Identify residual activity associated with the compound O=C(Nc1nc2ccccc2n1CCN1CCOCC1)c1cccc([N+](=O)[O-])c1
101

Annotate the compound N#C/C(=C1/Nc2ccccc2S1)c1ccnc(NCCc2cccnc2)n1 with its measured residual activity.
47

Determine its reported residual activity: O=C1NC(=O)C(c2cn(CCCO)c3ncccc23)=C1c1cnccn1
81

Supply recorded residual activity for COc1cc2nccc(Oc3ccc(NC(=S)NC(=O)c4ccccc4C)cc3)c2cc1OC here.
78

Identify the reported residual activity for the following entry. O=C1NC(=O)C(c2c[nH]c3ccccc23)=C1c1c[nH]c2ccccc12
28
